- targetOfAssay: T1, human PD-1 expressed on cells (CHO human PD-1 cells) (human, UniProt Q15116 21-288)
- T1 construct: also called CHO TREX human PD-1 cell line; CHO PD-1
- T1 sequence (Q15116 21-288): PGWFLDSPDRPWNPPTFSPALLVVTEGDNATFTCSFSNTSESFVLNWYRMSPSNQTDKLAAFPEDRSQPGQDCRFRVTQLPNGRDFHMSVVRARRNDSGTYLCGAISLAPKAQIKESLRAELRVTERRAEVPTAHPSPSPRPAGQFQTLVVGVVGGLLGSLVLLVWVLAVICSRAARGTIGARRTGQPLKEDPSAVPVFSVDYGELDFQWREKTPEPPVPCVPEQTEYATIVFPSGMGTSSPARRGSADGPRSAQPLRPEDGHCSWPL
- experiment: FMAT epitope competition on CHO human PD-1 cells; competitor 1 nM 1.1-Strep
measure: IC50 (nM)

Please review the following examples before continuing.
Humabody® 1.101 (VHH, human VH single domain antibody) VHH: EVQLVESGGGLVKPGGSLRLSCAASGFTFSDFSMTWMRQAPGKGLEWVSYISSGGGVKFYADSVKGRFTISRDNAKNSLYLQMNSLRAEDTAVYYCAREAPLRLGESPHDAFDISGQGTMVTVSS | 3
Humabody® 1.96 (VHH, human VH single domain antibody) VHH: EVQLVESGGGLVKPGGSLRLSCAASGFTFSDTSMTWMRQAPGKGLEWVSYISSGGGVKFYADSVKGRFTISRDNAKNSLYLQMNSLRAEDTAVYYCAREAPLRLGESPHDAFDISGQGTMVTVSS | 1.6
Humabody® 1.95 (VHH, human VH single domain antibody) VHH: EVQLVESGGGLVKPGGSLRLSCAASGFTFSDGSMTWMRQAPGKGLEWVSYISSGGGVKFYADSVKGRFTISRDNAKNSLYLQMNSLRAEDTAVYYCAREAPLRLGESPHDAFDISGQGTMVTVSS | 2
Humabody® 1.100 (VHH, human VH single domain antibody) VHH: EVQLVESGGGLVKPGGSLRLSCAASGFTFSDLSMTWMRQAPGKGLEWVSYISSGGGVKFYADSVKGRFTISRDNAKNSLYLQMNSLRAEDTAVYYCAREAPLRLGESPHDAFDISGQGTMVTVSS | 1.5
Humabody® 1.97 (VHH, human VH single domain antibody) VHH: EVQLVESGGGLVKPGGSLRLSCAASGFTFSDISMTWMRQAPGKGLEWVSYISSGGGVKFYADSVKGRFTISRDNAKNSLYLQMNSLRAEDTAVYYCAREAPLRLGESPHDAFDISGQGTMVTVSS | 1.7

a. Humabody® 1.99 (VHH, human VH single domain antibody) VHH: EVQLVESGGGLVKPGGSLRLSCAASGFTFSDRSMTWMRQAPGKGLEWVSYISSGGGVKFYADSVKGRFTISRDNAKNSLYLQMNSLRAEDTAVYYCAREAPLRLGESPHDAFDISGQGTMVTVSS
b. Humabody® 1.92 (VHH, human VH single domain antibody) VHH: EVQLVESGGGLVKPGGSLRLSCAASGFTFSDESMTWMRQAPGKGLEWVSYISSGGGVKFYADSVKGRFTISRDNAKNSLYLQMNSLRAEDTAVYYCAREAPLRLGESPHDAFDISGQGTMVTVSS
Record comparison, field IC50: mark the lower of a and b . Your answer should be the label attached to the chosen record.
b
(b: 0.79 nM, a: 1.4 nM)
